abundance fitness overview
B1: Tyrosine-protein kinase Lck, residues 63 to 120; numbered along this chain, P06239 (parent)
chain: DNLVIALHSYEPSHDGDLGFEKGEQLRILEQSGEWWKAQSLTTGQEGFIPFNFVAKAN

Variants of: B1
assay_notes: abundance fitness (aPCA) (normalised: wild type 0, dead -1); higher = more abundant; growth selection in yeast, the domain comes from the species named
condition_description: Homo sapiens

residue_change	abundance fitness
W35A	-0.044
Y10A	-0.671
K37Y	-0.177
P12E	-0.755
Q25I	-0.181
G16M	-0.259
A6W	-1.2
K22P	-0.801
L26V	-0.781
E46W	-0.517
L18I	-0.176
L7E	-0.217
I28G	-0.754
L26I	-0.648
V54I	-0.416
Y10L	-0.488
N52D	0.001
F20I	-0.47
T42K	0.042
I49R	-0.792
P12C	-0.387
S32H	-0.302
K22R	-0.252
F48K	0.115
L29R	-0.591
F53S	0.032
Q39S	-0.297
L26G	-0.704
T43C	-0.949
Q45V	-0.187
